- Test system: NCI-H2291 cell line
- assay.name: 96-hour MTS viable cell number assay, NCI-H2291 cell line (monotherapy and combination)
- run.conditions: Homo sapiens, NCI-H2291, 96 h, read-out: IC50 monotherapy (Geomean)
value.type: IC50 (µM)
Write down the numeric answer in µM and omit the unit.

Exercise: Tell me measured IC50 for COc1ccc(-c2ccc3c(N4CCOC[C@@H]4C)nc(N4CCOC[C@@H]4C)nc3n2)cc1CO [Compound A] please.
Key: 0.023

Exercise: Tell me measured IC50 for Cn1cnc2c(F)c(Nc3ccc(Br)cc3Cl)c(C(=O)NOCCO)cc21 [AZD6244] please.
Key: 0.704
